B1: KRT18 (parent)
chain: RVRSLETENRRLESKIREHLEKKG

Variants of: B1
Test: protein stability index of a GFP-peptide fusion (GPS, HEK-293T) (PSI 1-6); higher = more stable;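 further: lentivirally expressed fusions sorted by FACS into six bins by GFP to DsRed ratio, PSI derived from sequencing read proportions per bin multiplied by bin number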
Settings: c terminus: a fixed tail appended
Measured protein stability index, listed per entry for reference.
Answer with a bare number; do not write a unit.

Recorded protein stability index, per entry:
{"mutant": "E13Q", "protein stability index": 3.95}
{"mutant": "E6K", "protein stability index": 4.02}
{"mutant": "T7M", "protein stability index": 4.05}
{"mutant": "K22G", "protein stability index": 4.06}
{"mutant": "L20G", "protein stability index": 4.97}

query: Look at this variant and give its reported protein stability index. `L20W`
result: 3.95

query: Look at this variant and give its reported protein stability index. `R17V`
result: 4.96

query: Look at this variant and give its reported protein stability index. `E18H`
result: 3.99

query: Look at this variant and give its reported protein stability index. `E13N`
result: 4.89

query: Look at this variant and give its reported protein stability index. `K15C`
result: 4.06
